We begin with a simple list: items and their reported Selectivity.
Biological target: Monoamine transporters; serotonin & dopamine (Rattus norvegicus) (UniProt P31652+P23977)
Sequence (P23977 whole entry, looked up): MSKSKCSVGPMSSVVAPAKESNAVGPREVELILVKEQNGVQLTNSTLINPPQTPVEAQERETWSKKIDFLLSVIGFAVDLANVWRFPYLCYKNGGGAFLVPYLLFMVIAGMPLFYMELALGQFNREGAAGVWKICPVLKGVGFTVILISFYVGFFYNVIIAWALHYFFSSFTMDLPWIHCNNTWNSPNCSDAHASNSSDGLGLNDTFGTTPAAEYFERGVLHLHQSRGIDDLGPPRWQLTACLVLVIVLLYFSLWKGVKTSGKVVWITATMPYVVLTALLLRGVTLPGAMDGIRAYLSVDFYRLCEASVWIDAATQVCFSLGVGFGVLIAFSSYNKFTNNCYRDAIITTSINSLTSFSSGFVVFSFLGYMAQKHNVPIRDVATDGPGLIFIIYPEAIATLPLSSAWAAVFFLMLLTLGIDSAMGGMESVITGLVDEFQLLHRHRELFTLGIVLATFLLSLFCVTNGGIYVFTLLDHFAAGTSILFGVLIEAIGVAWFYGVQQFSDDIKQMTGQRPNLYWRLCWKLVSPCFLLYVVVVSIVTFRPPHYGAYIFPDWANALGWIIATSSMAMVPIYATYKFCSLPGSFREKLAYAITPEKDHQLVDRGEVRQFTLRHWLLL
Sequence (P31652 whole entry, looked up): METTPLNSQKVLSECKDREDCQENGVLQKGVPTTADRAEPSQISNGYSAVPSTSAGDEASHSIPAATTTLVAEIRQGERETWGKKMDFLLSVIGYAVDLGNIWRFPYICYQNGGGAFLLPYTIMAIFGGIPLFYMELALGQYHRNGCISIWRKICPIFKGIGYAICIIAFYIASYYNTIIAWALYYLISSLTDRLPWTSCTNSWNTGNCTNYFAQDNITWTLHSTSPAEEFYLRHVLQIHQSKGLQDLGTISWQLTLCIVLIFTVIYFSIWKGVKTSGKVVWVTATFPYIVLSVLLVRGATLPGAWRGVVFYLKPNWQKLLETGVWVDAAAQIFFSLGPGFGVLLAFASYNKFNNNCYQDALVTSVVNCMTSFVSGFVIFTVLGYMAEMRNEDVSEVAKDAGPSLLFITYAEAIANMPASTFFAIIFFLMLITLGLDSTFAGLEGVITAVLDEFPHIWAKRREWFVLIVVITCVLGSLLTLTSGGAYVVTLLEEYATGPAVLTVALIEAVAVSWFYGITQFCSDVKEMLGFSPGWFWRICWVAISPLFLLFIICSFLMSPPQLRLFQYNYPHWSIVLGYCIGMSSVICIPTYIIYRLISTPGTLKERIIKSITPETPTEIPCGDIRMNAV
Experiment: Selectivity for serotonin and dopamine transporters
Format: protein assay
Lab note: jot down the number only; don't add units.

These solved cases illustrate the format of a correct answer.
>  <Query smiles>
Clc1ccc(C(OCCC2CCN(CCc3ccccc3)CC2)c2ccc(Cl)cc2)cc1

>  <Selectivity>
3.6

$$$$
>  <Query smiles>
Brc1ccc(C(OCCC2CCN(CCCc3ccccc3)CC2)c2ccc(Br)cc2)cc1

>  <Selectivity>
5.2

$$$$

Now for the compound whose Selectivity we want.
// Selectivity (Monoamine transporters; serotonin & dopamine (Rattus norvegicus) (UniProt P31652+P23977)) for "c1ccc(CN2CCC(CCOC(c3ccccc3)c3ccccc3)CC2)cc1" = 49

----------
Biological target: Sodium-dependent serotonin transporter (Rattus norvegicus, UniProt P31652)
Endpoint label: IC50 (nM)
Please state the figure in nM; there is no need to write the unit.

For this compound ( "c1ccc(CCN2CCC(CCOC(c3ccccc3)c3ccccc3)CC2)cc1" ), measured IC50 is 102

For this compound ( "Cc1ccc(C(OCCC2CCN(CCc3ccccc3)CC2)c2ccc(C)cc2)cc1" ), measured IC50 is 888

For this compound ( "Clc1ccc(C(OCCC2CCN(CCc3ccccc3)CC2)c2ccc(Cl)cc2)cc1" ), measured IC50 is 414

----------
Molecular target: Sodium-dependent dopamine transporter (Rattus norvegicus, UniProt P23977)
Sequence (P23977 whole entry): as the sequence (P23977 whole entry, looked up) above
We begin with a simple list: items and their reported IC50.

>  <Query smiles>
Cc1ccc(C(OCCC2CCN(CCc3ccccc3)CC2)c2ccc(C)cc2)cc1

>  <Observed value>
311 nM

$$$$
>  <Query smiles>
Fc1ccc(C(OCCC2CCN(Cc3ccccc3)CC2)c2ccc(F)cc2)cc1

>  <Observed value>
9.7 nM

$$$$
>  <Query smiles>
c1ccc(CN2CCC(CCOC(c3ccccc3)c3ccccc3)CC2)cc1

>  <Observed value>
15.2 nM

$$$$
>  <Query smiles>
Fc1ccc(C(OCCC2CCN(CCCc3ccccc3)CC2)c2ccc(F)cc2)cc1

>  <Observed value>
16.7 nM

$$$$
>  <Query smiles>
Brc1ccc(C(OCCC2CCN(CCc3ccccc3)CC2)c2ccc(Br)cc2)cc1

>  <Observed value>
382 nM

$$$$

For this compound ( "Brc1ccc(C(OCCC2CCN(CCCc3ccccc3)CC2)c2ccc(Br)cc2)cc1" ), measured IC50 is 159 nM

For this compound ( "COc1ccc(C(OCCC2CCN(CCCc3ccccc3)CC2)c2ccc(OC)cc2)cc1" ), measured IC50 is 255 nM
